System: EPHA6;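 note: KINOMEscan kinase panel screen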
CONDITION_LABEL: concentration: 1 μM, replicates: in singlicate; n = 1
READOUT_NAME: %Inh (%)
Use % as the unit, but write only the number.

The measured %Inh that Cl.Cl.NCC(NC(=O)c1cc(-c2ccccc2)c(-c2ccnc3[nH]ccc23)s1)c1ccccc1 (stereo not drawn) showed for EPHA6 is 34

Further cases:
The measured %Inh that CCn1c(-c2nonc2N)nc2c(C#CC(C)(C)O)nc(OC[C@H](N)c3ccccc3)cc21 showed for EPHA6 is 0

The measured %Inh that Cc1cccc(Nc2nc(N[C@H]3CCNC3)ncc2C(N)=O)c1.Cl showed for EPHA6 is 7
